experiment: amyloid nucleation score (Sup35N fusion, yeast selection) (log enrichment); library NNK2; higher = more nucleation; inactive = no reads after selection;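 also: zero at mode of non-aggregating sequences after 7 days selection at 30°C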
Category scheme (amyloid nucleation score): low (below -0.3), medium (-0.3 to below 1), high (1 or more)

Task item: Pick a category. Item: NTIMFEFICSIGITVYD
Reply: high

Task item: // bin(item) where item = HWMAFVKRTANFDVIDWSAG
Reply: medium

Task item: Please let me know in which category the item VWLYCSEQDRCVMLASRELL belongs.
Reply: medium

Task item: Category lookup for the substance CLKPFRHTFEFLYQVDFTEV
Reply: low

Task item: Consider QHRMDTDTNYFDKDVGHFIS . To which amyloid nucleation score class does it belong?
Reply: low

Task item: Assign a category based on measured amyloid nucleation score for ASLHWKMFLMAFLTASIVHA and give only the class name.
Reply: low

Task item: Please report the category associated with CLLHMWIGLSSKVGGVRDA , nothing else.
Reply: low

Task item: Which bin, given its amyloid nucleation score, does MRLLVHSWDIESSFNVRMGQ occupy?
Reply: high

Task item: Band assignment needed for YTLFPAVLECDQVLYVSVNF please.
Reply: high

Task item: Exercise: read the entry AIWVMVANSMHCCVA and state which class it falls under.
Reply: high

Task item: Quick check: band for RGINVGGWLSLGFTGAVHSL
Reply: high

Task item: Given GTNHWTVRLIYLVLHLDRDG , name the class its amyloid nucleation score places it in.
Reply: medium

Task item: Into which category would you place DPLPMSYRVYSARSW ?
Reply: low

Task item: Could you place SVTVHFENVVDIRYVCVTMG in its proper category? Many thanks.
Reply: medium

Task item: Which bin should I file CLVYVGRVPSRIGDHRITAY under?
Reply: medium

Task item: Assign a bin to YESLYVKLVAEPQIRCMYYS
Reply: medium

Task item: For this substance, which bin applies? EYYLSVYSYYCYCLTCMFVI
Reply: high

Task item: Bin? STPIAEV
Reply: medium

Task item: Please indicate the class for RSWIFVSLIDCMEWILMNGS based on its amyloid nucleation score.
Reply: low

Task item: Band for the recorded amyloid nucleation score of CQRTLQTGAYRDGLCIYGLS ?
Reply: high

Task item: Hi there! Could you help me figure out the category for GCYRLNSLYATIQLRLLSWW please?
Reply: low
